Target Or Test System: T1, EsCas13d, nuclease-dead (Eubacterium siraeum, UniProt B0MS50, R295A;H300A;R849A;H854A)
T1 sequence: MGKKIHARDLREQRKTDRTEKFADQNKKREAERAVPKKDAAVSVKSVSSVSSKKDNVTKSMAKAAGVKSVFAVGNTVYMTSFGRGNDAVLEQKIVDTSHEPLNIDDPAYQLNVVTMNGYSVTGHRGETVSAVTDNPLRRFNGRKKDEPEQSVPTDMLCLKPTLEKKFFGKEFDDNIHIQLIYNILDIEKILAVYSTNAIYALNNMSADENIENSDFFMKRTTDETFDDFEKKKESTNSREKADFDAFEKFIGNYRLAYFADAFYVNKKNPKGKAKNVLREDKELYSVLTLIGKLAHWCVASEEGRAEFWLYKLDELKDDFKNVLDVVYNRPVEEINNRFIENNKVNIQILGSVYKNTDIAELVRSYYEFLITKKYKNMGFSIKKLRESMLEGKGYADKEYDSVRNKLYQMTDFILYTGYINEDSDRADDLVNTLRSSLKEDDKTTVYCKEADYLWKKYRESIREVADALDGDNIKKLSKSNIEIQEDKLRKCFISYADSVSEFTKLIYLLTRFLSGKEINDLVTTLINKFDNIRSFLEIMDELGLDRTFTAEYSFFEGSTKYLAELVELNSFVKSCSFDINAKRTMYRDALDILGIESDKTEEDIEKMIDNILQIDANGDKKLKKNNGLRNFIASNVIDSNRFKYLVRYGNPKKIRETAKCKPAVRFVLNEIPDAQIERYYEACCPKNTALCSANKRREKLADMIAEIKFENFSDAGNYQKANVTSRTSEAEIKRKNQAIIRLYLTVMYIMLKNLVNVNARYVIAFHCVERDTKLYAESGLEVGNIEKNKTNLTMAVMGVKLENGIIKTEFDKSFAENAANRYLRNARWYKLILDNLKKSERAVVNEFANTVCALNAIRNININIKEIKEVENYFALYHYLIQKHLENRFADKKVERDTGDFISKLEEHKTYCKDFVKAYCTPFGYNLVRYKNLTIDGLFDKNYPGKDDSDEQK
Assay Procedure: crRNA (strand 1, pre-loaded); Mg2+; 40 mM Tris-HCl pH 7.5, 150 mM NaCl, 6 mM MgCl2, 1 mM DTT, 0.1% Tween-20, 0.2 mg/ml BSA; 25 C; 10 min per concentration, then washed
Condition Label: tags: His6-TwinStrep-SUMO cleaved; N-terminal SNAP kept (SNAP-Surface 488); label: 3' end held by stalled T7 RNA polymerase
Measurement Type: pKd
Worth noting: pKd values are minus log10 of concentrations stated in mol/L.

Consider the worked cases shown below.
target 1 insC 3' of 13 (mixed) RNA 1: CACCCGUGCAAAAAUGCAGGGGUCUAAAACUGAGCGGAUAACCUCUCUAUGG RNA 2: GGGAAUGGAUCCACAUCUACGAAUUCGUACCAUAGAGAGCGUUAUCCGCUCACCGAGAUCGGAAGAGCACACGU :: 8.04
target 2 MT 5'PFS GAC 3'PFS CGC (mixed) RNA 1: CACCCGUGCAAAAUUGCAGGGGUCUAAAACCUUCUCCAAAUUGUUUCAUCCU RNA 2: GGGAAUGGAUCCACAUCUACGAAUUCGACAGGAUGAAACAAUUUGGAGAAGCGCAGAUCGGAAGAGCACACGU :: 7.83

Asked: What pKd value was documented for this binder, target 2 MT 5'PFS GGA 3'PFS AGC (mixed) RNA 1: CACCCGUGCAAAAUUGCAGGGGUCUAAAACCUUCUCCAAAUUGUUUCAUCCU RNA 2: GGGAAUGGAUCCACAUCUACGAAUUCGGAAGGAUGAAACAAUUUGGAGAAGAGCAGAUCGGAAGAGCACACGU ?
Given back: 8.14

Asked: What pKd value was documented for this binder, target 2 MT 5'PFS GGC 3'PFS CUC (mixed) RNA 1: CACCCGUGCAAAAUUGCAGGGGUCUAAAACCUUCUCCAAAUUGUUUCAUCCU RNA 2: GGGAAUGGAUCCACAUCUACGAAUUCGGCAGGAUGAAACAAUUUGGAGAAGCUCAGAUCGGAAGAGCACACGU ?
Given back: 7.88

Asked: Endpoint output: pKd of target 1 insA 3' of 21,insC 3' of 10 (mixed) RNA 1: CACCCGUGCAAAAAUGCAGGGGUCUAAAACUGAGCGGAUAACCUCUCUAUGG RNA 2: GGGAAUGGAUCCACAUCUACGAAUUCGUACCAAUAGAGAGGUUCAUCCGCUCACCGAGAUCGGAAGAGCACACGU . Value?
Given back: 7.24

Asked: // pKd lookup, key: target 2 MT 5'PFS AGC 3'PFS CUC (mixed) RNA 1: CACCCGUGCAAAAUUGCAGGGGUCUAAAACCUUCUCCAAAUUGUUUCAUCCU RNA 2: GGGAAUGGAUCCACAUCUACGAAUUCAGCAGGAUGAAACAAUUUGGAGAAGCUCAGAUCGGAAGAGCACACGU
Given back: 7.94

Asked: Item target 1 insA 3' of 17,insG 3' of 11 (mixed) RNA 1: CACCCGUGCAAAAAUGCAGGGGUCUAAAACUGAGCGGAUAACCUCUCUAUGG RNA 2: GGGAAUGGAUCCACAUCUACGAAUUCGUACCAUAGAAGAGGUGUAUCCGCUCACCGAGAUCGGAAGAGCACACGU has what recorded pKd?
Given back: 7.07
